- assay.system: human EGFR (huEGFR) over-expressed on mcl-1-/- mouse embryonic fibroblasts (human, UniProt P00533 25-1210)
- test.protocol: cell-based or functional assay
measured.parameter: huEGFR+ mcl-1-/- MEF EC50 (nM)
Dear colleague, please return just the value in nM, with no unit written.

Please review the entries below; each comes with its answer.
AbA-ZZ (antibody, human IgG1, kappa, V domains shown, synthon ZZ on reduced interchain cysteines; average DAR 1.3 per ADC) VH: EVQLQESGPGLVKPSQTLSLTCTVSGYSISRDFAWNWIRQPPGKGLEWMGYISYNGNTRYQPSLKSRITISRDTSKNQFFLKLNSVTAADTATYYCVTASRGFPYWGQGTLVTVSS VL: DIQMTQSPSSMSVSVGDRVTITCHSSQDINSNIGWLQQKPGKSFKGLIYHGTNLDDGVPSRFSGSGSGTDYTLTISSLQPEDFATYYCVQYAQFPWTFGGGTKLEIKR; 186
AbK-SE (antibody, human IgG1, kappa, V domains shown, synthon SE on reduced interchain cysteines; average DAR 2.7 per ADC) VH: EVQLQESGPGLVKPSQTLSLTCTVSGYSISRDFAWNWIRQPPGKGLEWMGYISYNGNTRYQPSLKSRITISRDTSKNQFFLKLNSVTAADTATYYCVTASRGFPWWGQGTLVTVSS VL: DIQMTQSPSSMSVSVGDRVTITCHSSQDITYNVGWLQQKPGKSFKGLIYHGSNLDHGVPSRFSGSGSGTDYTLTISSLQPEDFATYYCVQYDDFPWTFGGGTKLEIKR; 161
AbG-SR (antibody, human IgG1, kappa, V domains shown, synthon SR on reduced interchain cysteines; average DAR 2.8 per ADC) VH: EVQLQESGPGLVKPSQTLSLTCTVSGYSISNDFAWNWIRQLPGKGLEWMGYISYKGNTRYQPSLKSRITISRDTSKNQFFLKLNSVTAADTATYYCVTASRGLPYWGQGTLVTVSS VL: DIQMTQSPSSMSVSVGDRVTITCHSSQDITYNIGWLQQKPGKSFKGLIYHGANLDDGVPSRFSGSGSGTDYTLTISSLQPEDFATYYCVQYDEFPWTFGGGTKLEIKR; 7

In the following, a different binder is considered.
Which huEGFR+ mcl-1-/- MEF EC50 reading was recorded for the binder AbG-KZ (antibody, human IgG1, kappa, V domains shown, synthon KZ on reduced interchain cysteines; average DAR 2.7 per ADC) VH: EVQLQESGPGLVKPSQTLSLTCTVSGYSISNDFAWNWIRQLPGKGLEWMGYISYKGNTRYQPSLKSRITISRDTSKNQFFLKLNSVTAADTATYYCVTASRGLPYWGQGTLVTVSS VL: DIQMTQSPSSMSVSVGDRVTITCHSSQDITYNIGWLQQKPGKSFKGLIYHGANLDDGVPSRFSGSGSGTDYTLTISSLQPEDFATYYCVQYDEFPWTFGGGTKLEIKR ? 96
